- SYSTEM_UNDER_TEST: Protein FosB (Mus musculus) (UniProt P13346)
- Sequence (P13346 whole entry, looked up): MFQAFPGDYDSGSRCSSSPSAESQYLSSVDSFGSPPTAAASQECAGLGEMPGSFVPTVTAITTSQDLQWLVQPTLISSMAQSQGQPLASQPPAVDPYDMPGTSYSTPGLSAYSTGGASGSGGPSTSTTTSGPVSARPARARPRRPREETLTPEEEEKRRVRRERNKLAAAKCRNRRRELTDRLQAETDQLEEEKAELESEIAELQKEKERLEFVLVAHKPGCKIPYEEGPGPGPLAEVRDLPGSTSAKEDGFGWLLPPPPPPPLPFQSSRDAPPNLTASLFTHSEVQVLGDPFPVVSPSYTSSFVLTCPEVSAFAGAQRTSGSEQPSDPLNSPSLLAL
- ASSAY_NAME: activators of delta FosB homodimer, primary screen, biochemical, fluorescence polarization, TAMRA-CDK5 oligo, single point (AID 493131);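 also: fluorescence polarization rise as delta FosB binds a TAMRA Cdk5 AP-1 oligo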
- CONDITION_LABEL: purified delta FosB, at 25 µM, percent of positive-control signal above neutral wells
Among all 340,000 compounds or so, about 3,300 (0.97%) were called active.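 The calls were made as follows: active = mean activation above about 17%, with every replicate also reaching it (limit read from the data, passing the limit was not always enough); inconclusive = only one of the two conditions met; inactive = the rest.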 This is one part of a sample in which actives are shown more often than they occur.
The categories you may choose from are active, inactive

                  query_smiles  category_label
0  O=C1c2ccncc2C(=O)N1C1CCCCC1        inactive

API: the following record is the query input.
## Task Recorded test call requested for O=C(Cn1nnc(-c2ccc3c(c2)OCO3)n1)NCc1ccco1
## Result active
